This collection of values is drawn from paper PMC12136037.

Molecular target: ~100 representative kinases (Homo sapiens, UniProt O14936)
Construct: Recombinant protein kinase domains with a concentration of 2 μM
Sequence (O14936 whole entry, the tested form may be a part): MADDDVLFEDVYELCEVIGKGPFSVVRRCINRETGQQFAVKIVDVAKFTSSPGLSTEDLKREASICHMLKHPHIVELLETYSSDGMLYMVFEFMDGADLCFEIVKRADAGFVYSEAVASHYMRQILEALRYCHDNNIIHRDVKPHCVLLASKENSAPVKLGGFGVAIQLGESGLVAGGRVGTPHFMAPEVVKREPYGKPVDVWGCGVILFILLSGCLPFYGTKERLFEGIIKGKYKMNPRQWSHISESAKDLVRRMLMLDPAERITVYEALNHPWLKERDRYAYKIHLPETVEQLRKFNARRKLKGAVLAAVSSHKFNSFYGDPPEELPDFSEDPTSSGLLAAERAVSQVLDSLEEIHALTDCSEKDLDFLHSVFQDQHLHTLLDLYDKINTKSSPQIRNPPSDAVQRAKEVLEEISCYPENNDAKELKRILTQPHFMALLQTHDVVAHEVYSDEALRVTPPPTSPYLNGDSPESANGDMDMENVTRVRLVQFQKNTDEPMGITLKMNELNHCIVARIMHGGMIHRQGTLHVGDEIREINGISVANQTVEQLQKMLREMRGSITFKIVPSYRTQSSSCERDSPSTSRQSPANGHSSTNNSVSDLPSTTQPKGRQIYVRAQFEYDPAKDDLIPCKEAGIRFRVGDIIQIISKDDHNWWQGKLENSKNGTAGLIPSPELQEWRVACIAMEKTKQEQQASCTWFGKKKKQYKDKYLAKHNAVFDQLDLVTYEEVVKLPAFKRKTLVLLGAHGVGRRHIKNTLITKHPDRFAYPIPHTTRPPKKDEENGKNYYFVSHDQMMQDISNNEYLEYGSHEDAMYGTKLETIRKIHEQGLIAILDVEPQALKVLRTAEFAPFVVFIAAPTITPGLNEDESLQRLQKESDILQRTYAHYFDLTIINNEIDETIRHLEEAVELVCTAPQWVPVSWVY
Assay: DSF 100 kinase selectivity screen;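 further: compound tested at 20 µM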
Format: binding
Conditions: Protein CASK; average of three replicates
value kind: dTm (K)

O=C(Nc1ccccc1)C1(C(=O)Nc2cccc(-c3c[nH]c4ncnc(N5CCOCC5)c34)c2)CC1 [Compound 12] ... 0.25

A. COc1cc(C(=O)N2CCOCC2)c(F)cc1Nc1nc(N(C)C)c2c(Cl)c[nH]c2n1 [Compound 36]
B. O=C(Nc1cccc(-c2c[nH]c3ncnc(N4CCOCC4)c23)c1)C1(C(=O)Nc2cc(Br)c(F)cc2F)CC1 [Compound 25]
C. CC(C)(C)c1cc(NC(=O)Nc2cccc(-c3c[nH]c4ncnc(N5CCOCC5)c34)c2)n(-c2ccc3ncccc3c2)n1 [Compound 28]
input: Hey, quick one: sort these by dTm, largest value first please. Would you mind listing the labels in the order requested?
output: B, C, A
(B: 1.03 K, C: 0.70 K, A: -0.72 K)
